ASSAYED SYSTEM: dopamine D2 receptor (Rattus norvegicus)
Construct: homogenized rat striatal brain tissue
Sequence (P61169 whole entry): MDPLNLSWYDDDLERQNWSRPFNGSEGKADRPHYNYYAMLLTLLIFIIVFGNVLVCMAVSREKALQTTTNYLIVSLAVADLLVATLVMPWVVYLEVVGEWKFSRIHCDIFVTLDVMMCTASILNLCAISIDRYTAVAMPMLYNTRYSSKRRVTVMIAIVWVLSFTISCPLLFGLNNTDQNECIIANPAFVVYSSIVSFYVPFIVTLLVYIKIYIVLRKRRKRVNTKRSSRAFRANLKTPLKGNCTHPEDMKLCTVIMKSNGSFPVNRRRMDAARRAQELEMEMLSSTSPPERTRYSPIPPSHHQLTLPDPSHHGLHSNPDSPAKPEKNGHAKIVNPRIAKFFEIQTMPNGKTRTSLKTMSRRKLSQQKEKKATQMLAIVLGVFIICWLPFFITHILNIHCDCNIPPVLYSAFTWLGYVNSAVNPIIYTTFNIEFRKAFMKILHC
ASSAY DETAILS: Affinity for the dopamine D2 receptor (3H-quinpirole, rat striatal brain tissue homogenate)
ASSAY CONTEXT: homogenized rat striatal brain tissue
Property: pIC50; scope: individual compounds
The value called pIC50 is obtained by taking minus log10 of the concentration in mol/L.

Sample records with pIC50:
Cc1cc2c(c3c1NC(=O)C3)O[C@@H](CNCc1ccccc1)CO2	8.89
O=C1Cc2c(c(F)cc3c2O[C@@H](CNCc2ccc(C(F)(F)F)cc2)CO3)N1	9.25
NC[C@H]1COc2ccc3c(c2O1)CC(=O)N3	8.00
Cc1cc2c(c3c1NC(=O)C3)O[C@@H](CNCc1ccc(F)cc1)CO2	8.67
O=C1Nc2ccc3c(c2C1=O)O[C@@H](CNCc1ccccc1)CO3	9.28
O=C1Cc2c(ccc3c2O[C@H](CNCc2ccccc2)CO3)N1	8.48

compound Cc1ccc(CNC[C@H]2COc3cc(C)c4c(c3O2)CC(=O)N4)cc1 , pIC50 observed: 8.86

The compound identified as O=C1Cc2c(c(F)cc3c2O[C@@H](CNCCCCc2ccccc2)CO3)N1 registered its pIC50 at 9.17
